- system under test: Serine/threonine-protein kinase PAK 6 (Homo sapiens)
- run conditions: at 10 µM
Kindly supply the reported residual activity values for the records listed here.
Answers are plain numbers, in %.

Below: 5 compounds and their reported residual activity.
{"columns": ["compound", "residual activity (%)"],
 "data": [
  ["COc1ccc2c(c1)/C(=C/c1cnc[nH]1)C(=O)N2", 53],
  ["C[S+]([O-])c1ccc(-c2nc(-c3ccc(F)cc3)c(-c3ccncc3)[nH]2)cc1 (stereo unspecified)", 100],
  ["O=[N+]([O-])/C=C/c1ccc2c(c1)OCO2", 102],
  ["COc1ccc2c(c[n+](C)c3c4cc5c(cc4ccc23)OCO5)c1OC", 61],
  ["COc1cc(OC)c(/C=C2\\C(=O)Nc3ccccc32)c(OC)c1", 93]
]}

Please find the next compound below.
Task: Given O=C1c2ccccc2-c2nc3nnnn3nc21 , respond with its residual activity.
Output: 112

====

- system under test: LIM domain kinase 1 (Homo sapiens)
- run conditions: at 1 µM
assay endpoint: residual activity (%)
Answers are plain numbers, in %.

{"columns": ["structure smiles", "val"],
 "data": [
  ["CC(C)(C)c1cc(C=C(C#N)C#N)cc(Br)c1O", 111],
  ["COc1cc(OC)c(/C=C2\\C(=O)Nc3ccccc32)c(OC)c1", 83],
  ["O=C1Nc2ccc3ncsc3c2/C1=C/c1c[nH]cn1", 55]
]}

I have 2 compounds here; please give me residual activity for each one.
1. CC(C)[C@H](CO)Nc1nc(Nc2cccc(Cl)c2)c2ncn(C(C)C)c2n1
2. CCc1nc(-c2ccc(OC)cc2)[nH]c1-c1ccncc1

Output:
98
100

====

- system under test: G protein-coupled receptor kinase 5 (Homo sapiens) (UniProt P34947)
- Sequence (P34947 whole entry, looked up): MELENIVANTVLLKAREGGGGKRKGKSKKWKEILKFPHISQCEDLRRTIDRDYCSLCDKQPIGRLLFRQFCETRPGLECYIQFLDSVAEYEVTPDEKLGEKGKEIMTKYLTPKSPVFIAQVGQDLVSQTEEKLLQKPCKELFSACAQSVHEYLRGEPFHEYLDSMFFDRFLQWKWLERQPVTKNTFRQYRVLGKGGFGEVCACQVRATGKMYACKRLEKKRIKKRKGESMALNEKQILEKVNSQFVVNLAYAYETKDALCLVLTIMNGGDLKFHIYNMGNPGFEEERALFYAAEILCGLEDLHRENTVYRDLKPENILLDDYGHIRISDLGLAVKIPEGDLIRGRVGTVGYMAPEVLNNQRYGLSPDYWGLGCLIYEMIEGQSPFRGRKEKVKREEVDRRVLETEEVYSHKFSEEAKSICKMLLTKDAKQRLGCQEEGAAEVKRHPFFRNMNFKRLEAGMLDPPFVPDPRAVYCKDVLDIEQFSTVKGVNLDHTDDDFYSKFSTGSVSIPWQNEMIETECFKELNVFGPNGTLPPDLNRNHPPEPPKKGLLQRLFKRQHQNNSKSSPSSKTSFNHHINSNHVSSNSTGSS
- run conditions: at 10 µM
Values of residual activity greater than or equal to 80% map to Y; values below map to N.

Task: Check if residual activity >= 80% (inclusive). Item: COc1cc2ncnc(Nc3ccc(OCc4ccccc4)cc3)c2cc1OC
Output: Y

Task: Check if residual activity >= 80% (inclusive). Item: O=[N+]([O-])/C=C/c1ccc2c(c1)OCO2
Output: Y

Task: Check if residual activity >= 80% (inclusive). Item: O=C1c2ccccc2-c2nc3nnnn3nc21
Output: N

Task: Check if residual activity >= 80% (inclusive). Item: O=C1Nc2ccc3ncsc3c2/C1=C/c1c[nH]cn1
Output: N

Task: Check if residual activity >= 80% (inclusive). Item: COC(=O)[C@@]1(O)C[C@H]2O[C@]1(C)n1c3ccccc3c3c4c(c5c6ccccc6n2c5c31)C(=O)NC4
Output: N

Task: Check if residual activity >= 80% (inclusive). Item: O=c1[nH]c2ccccc2n1C1CCN(Cc2ccc(-c3nc4cc5[nH]cnc5cc4nc3-c3ccccc3)cc2)CC1
Output: Y

====

- system under test: Ephrin type-B receptor 3 (Homo sapiens) (UniProt P54753)
- Sequence (whole entry): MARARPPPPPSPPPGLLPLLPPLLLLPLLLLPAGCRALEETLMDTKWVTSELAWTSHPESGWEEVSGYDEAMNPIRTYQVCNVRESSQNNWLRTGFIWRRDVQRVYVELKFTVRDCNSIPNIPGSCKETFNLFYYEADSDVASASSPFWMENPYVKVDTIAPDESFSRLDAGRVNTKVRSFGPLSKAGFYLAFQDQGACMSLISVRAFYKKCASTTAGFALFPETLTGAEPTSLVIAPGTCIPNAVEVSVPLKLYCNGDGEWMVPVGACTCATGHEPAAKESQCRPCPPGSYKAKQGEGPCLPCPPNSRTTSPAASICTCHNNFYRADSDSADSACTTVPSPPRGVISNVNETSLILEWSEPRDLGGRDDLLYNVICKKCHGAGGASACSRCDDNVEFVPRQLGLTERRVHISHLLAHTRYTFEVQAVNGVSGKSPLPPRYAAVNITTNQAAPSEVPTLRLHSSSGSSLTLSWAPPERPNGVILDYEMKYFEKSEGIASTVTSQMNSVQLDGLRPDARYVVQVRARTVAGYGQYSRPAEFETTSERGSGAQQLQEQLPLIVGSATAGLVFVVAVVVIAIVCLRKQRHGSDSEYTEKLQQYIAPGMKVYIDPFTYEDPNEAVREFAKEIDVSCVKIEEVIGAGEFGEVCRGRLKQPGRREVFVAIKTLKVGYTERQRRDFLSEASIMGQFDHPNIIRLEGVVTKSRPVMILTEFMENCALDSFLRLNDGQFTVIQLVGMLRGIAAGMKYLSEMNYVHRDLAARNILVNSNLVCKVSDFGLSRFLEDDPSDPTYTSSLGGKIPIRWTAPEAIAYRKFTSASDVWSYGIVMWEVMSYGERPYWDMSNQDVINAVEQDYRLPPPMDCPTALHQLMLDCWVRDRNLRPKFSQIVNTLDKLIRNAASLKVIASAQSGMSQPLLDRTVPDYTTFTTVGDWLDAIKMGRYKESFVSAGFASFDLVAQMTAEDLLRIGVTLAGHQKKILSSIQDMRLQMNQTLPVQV
- run conditions: at 10 µM
- Description: Millipore: Percentage of residual kinase activity of EPHB3 at 10uM relative to control. Control inhibitor: PP2 at 30.0uM. Buffer: 8 mM MOPS pH 7.0, 0.2 mM EDTA, 10 mM MnCl2
Kindly supply the reported residual activity values for the records listed here.
Answers are plain numbers, in %.

{"columns": ["structure smiles", "system under test", "result units", "val"],
 "data": [
  ["CCc1nc(-c2ccc(OC)cc2)[nH]c1-c1ccncc1", "Ephrin type-B receptor 3 (Homo sapiens) (UniProt P54753)", "%", 111]
]}

I have 3 molecules here; please give me residual activity for each one.
1. COc1ccc2c(c[n+](C)c3c4cc5c(cc4ccc23)OCO5)c1OC
2. COc1cc(OC)c(/C=C2\C(=O)Nc3ccccc32)c(OC)c1
3. CN[C@@H]1C[C@H]2O[C@@](C)([C@@H]1OC)n1c3ccccc3c3c4c(c5c6ccccc6n2c5c31)C(=O)NC4

Output:
1. 133
2. 107
3. 131

Task: Given O=[N+]([O-])/C=C/c1ccc2c(c1)OCO2 , respond with its residual activity.
Output: 111
